- Experimental target: BRD9 (Homo sapiens)
- Test summary: BRD9 degradation, HiBiT-BRD9 KI HEK293 (LgBiT) cells, NanoGlo Lytic Endpoint assay (Assay Protocol 1)
- Type: cell-based
- Run conditions: Table 2; BRD9 degradation, Assay Protocol 1; 6 h of treatment; read-out: Assay 1 DC50
Reported endpoint: DC50

Query string: Can you look up DC50 on BRD9 (Homo sapiens) for COc1cc(-c2cn(C)c(=O)c(C)c2C)cc(OC)c1CN1CCCN(Cc2cccc3c2CCN(C(=O)/C(C#N)=C/C(C)(C)C)C3C)CC1 (mixture of isomers) ?
Result string: 10 to 25 nM

Query string: Similarly, COc1cc(-c2cn(C)c(=O)c3cnccc23)cc(OC)c1CN1CCN(C(=O)c2ccc(C3CCCN3C(=O)/C(C#N)=C/c3nccs3)cc2)CC1 (mixture of isomers) ?
Result string: 1.25 to 10 nM

Query string: Follow-up entry: COc1cc(-c2cn(C)c(=O)c3cnccc23)cc(OC)c1CN1CCN(Cc2cccc3c2CCN(C(=O)/C(C#N)=C\C(C)C)C3C)CC1 (mixture of isomers)
Result string: 1.25 to 10 nM

Query string: And for COc1cc(-c2cn(C)c(=O)c(C)c2C)cc(OC)c1CN1CC2CC(C1)N2Cc1cccc2c1CCN(C(=O)/C(C#N)=C/C(C)(C)C)C2C (mixture of isomers) ?
Result string: 1.25 to 10 nM

###

- Experimental target: UniProtKB Q9H8M2
- Test summary: Degradation of BRD9 (IF), immunofluorescence in MV4-11 cells, 24 hours (Assay Protocol 2)
- Assay type: cell-based
- Design: A suspension of MV4-11 cells (ATCC CRL-9591) was prepared; host or cells: MV4-11
- Run conditions: Assay protocol 2; BRD9 degradation; read-out: DC50
Would you mind telling me the reported DC50 of each entry?

Query string: Param readout= DC50; system= UniProtKB Q9H8M2; entry= COc1cc(-c2cn(C)c(=O)c(C)c2C)cc(OC)c1CN1CCN(Cc2cccc3c2CCN(C(=O)/C(C#N)=C/C(C)(C)C)[C@@H]3C)[C@@H](C)C1 (single isomer, unassigned) ; returns value.
Result string: 1.25 to 10 nM

Query string: Please give the result for COc1cc(-c2cn(C)c(=O)c3[nH]ncc23)cc(OC)c1CN1CCN(Cc2cccc3c2CCN(C(=O)/C(C#N)=C/c2cccc(Br)n2)C3C)CC1 (mixture of isomers) too.
Result string: 1.25 to 10 nM

Query string: Do the same for CCCC(c1ccc(C(=O)N(C)CCCCCCCCC(=O)N2CCN(Cc3c(OC)cc(-c4cn(C)c(=O)c(C)c4C)cc3OC)CC2)cc1)N(C)C(=O)/C(C#N)=C/c1nccs1 (mixture of isomers) please
Result string: 1.25 to 10 nM

###

- Experimental target: BRD9 (Homo sapiens, UniProt Q9H8M2)
- Test summary: BRD9 degradation, HiBiT-BRD9 KI HEK293 (LgBiT) cells, NanoGlo Lytic Endpoint assay (Assay Protocol 1)
- Assay type: cell-based
- Run conditions: Assay protocol 1; BRD9 degradation; read-out: DC50
Reported endpoint: DC50

Query string: Could you share what DC50 was measured for COc1cc(-c2cn(C)c(=O)c(C)c2C)cc(OC)c1CN1CCN(Cc2cccc3c2CCN(C(=O)/C(C#N)=C/C2(F)CC2)C3C)CC1 (mixture of isomers) , tested on BRD9 (Homo sapiens, UniProt Q9H8M2)?
Result string: < 1.25 nM

Query string: What do we get for COc1cc(-c2cn(C)c(=O)c(C)c2C)cc(OC)c1CN1CC2CC(C1)N2Cc1cccc2c1CCN(C(=O)/C(C#N)=C/c1cccc(Br)n1)C2C (mixture of isomers) ?
Result string: 1.25 to 10 nM

Query string: Another molecule: COc1cc(-c2cn(C)c(=O)c(C)c2C)cc(OC)c1CN1CCC2(CC1)CCN(c1cccc3c1CCN(C(=O)/C(C#N)=C/C(C)(C)C)C3C)CC2 (mixture of isomers)
Result string: 25 to 1000 nM

Query string: // query: COc1cc(-c2cn(C)c(=O)c(C)c2C)cc(OC)c1CN1CC2CC(C1)N2Cc1cccc(C2CCCN2C(=O)/C(C#N)=C/c2cccc(Br)n2)c1 (mixture of isomers)
Result string: 10 to 25 nM

Query string: Please answer likewise for COc1cc(-c2cn(C)c(=O)c(C)c2C)cc(OC)c1CN1CC2(C1)CN(c1cccc(C3CCCN3C(=O)/C(C#N)=C/C(C)(C)C)c1)C2 (mixture of isomers)
Result string: < 1.25 nM

###

- Experimental target: BRD9 (Homo sapiens, UniProt Q9H8M2)
- Sequence (Q9H8M2 1-597): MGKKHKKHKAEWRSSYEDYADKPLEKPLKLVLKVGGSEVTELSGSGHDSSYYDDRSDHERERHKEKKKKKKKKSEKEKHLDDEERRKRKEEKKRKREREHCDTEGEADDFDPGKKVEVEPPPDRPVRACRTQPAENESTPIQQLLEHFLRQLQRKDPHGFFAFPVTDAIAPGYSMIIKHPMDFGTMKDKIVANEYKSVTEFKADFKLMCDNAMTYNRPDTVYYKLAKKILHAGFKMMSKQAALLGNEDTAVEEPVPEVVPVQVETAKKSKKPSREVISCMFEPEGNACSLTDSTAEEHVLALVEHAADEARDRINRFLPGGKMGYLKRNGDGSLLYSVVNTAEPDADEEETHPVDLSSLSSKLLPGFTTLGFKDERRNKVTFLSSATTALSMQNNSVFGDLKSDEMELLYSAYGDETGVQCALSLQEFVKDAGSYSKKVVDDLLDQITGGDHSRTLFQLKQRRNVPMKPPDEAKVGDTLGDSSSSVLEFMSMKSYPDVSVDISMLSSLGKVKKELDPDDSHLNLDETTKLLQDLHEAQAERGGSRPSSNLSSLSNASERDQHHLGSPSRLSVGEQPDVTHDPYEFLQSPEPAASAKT
- Test summary: Degradation of BRD9 (IF), immunofluorescence in MV4-11 cells, 24 hours (Assay Protocol 2)
- Assay type: cell-based
- Parameters: A suspension of MV4-11 cells (ATCC CRL-9591) was prepared; host or cells: MV4-11
- Run conditions: MV4-11, Assay protocol 2; BRD9 degradation; read-out: Dmax
Reported endpoint: Dmax

Query string: Suppose we examine the compound COc1cc(-c2cn(C)c(=O)c(C)c2C)cc(OC)c1CN1CCC2(CC1)CCN(c1cccc3c1CCN(C(=O)/C(C#N)=C/C(C)(C)CF)[C@@H]3C)C2 (mixture of isomers) ; what Dmax value has been reported?
Result string: > 75%

Query string: Ok, now COc1cc(-c2cn(C)c(=O)c(C)c2C)cc(OC)c1CN1CCC(Oc2cccc3c2CCN(C(=O)/C(C#N)=C/c2cccc(C(F)(F)F)n2)C3C)CC1 (centres unmarked)
Result string: 40 to 70%

Query string: Input COc1cc(-c2cn(C)c(=O)c(C)c2C)cc(OC)c1CN(C)Cc1cccc(C2CCCN2C(=O)/C(C#N)=C/C(C)(C)C)c1 (mixture of isomers)
Result string: > 75%

Query string: Now try COc1cc(-c2cn(C)c(=O)c(C)c2C)cc(OC)c1CN1CCN(Cc2cccc3c2CCN(C(=O)/C(C#N)=C/c2ccnc(C)n2)C3C)CC1 (mixture of isomers) .
Result string: > 75%

Query string: Proceed to COc1cc(-c2cn(C)c(=O)c(C)c2C)cc(OC)c1CN1CCN(Cc2ccc3c(c2)C(C)N(C(=O)/C(C#N)=C/C(C)(C)C)CC3)C2(CC2)C1 (mixture of isomers)
Result string: > 75%

###

Exercise: state measured DC50 for each of the compounds provided.
- Experimental target: BRD9 (Homo sapiens, UniProt Q9H8M2)
- Test summary: Degradation of BRD9 (IF), immunofluorescence in MV4-11 cells, 24 hours (Assay Protocol 2)
- Assay type: cell-based
- Design: A suspension of MV4-11 cells (ATCC CRL-9591) was prepared; host or cells: MV4-11
- Run conditions: Assay protocol 2; BRD9 degradation; read-out: DC50

Query string: What measured DC50 goes with COc1cc(-c2cn(C)c(=O)c3[nH]ncc23)cc(OC)c1CN1CCN(Cc2cccc3c2CCN(C(=O)/C(C#N)=C/C(C)(C)C)C3C)C2(CC2)C1 (mixture of isomers) ?
Result string: < 1.25 nM

Query string: Same for COc1cc(-c2cn(C)c(=O)c(C)c2C)cc(OC)c1CN1CCN(c2cccc(C3CCCN3C(=O)/C(C#N)=C/C(C)(C)C)c2)CC1 (mixture of isomers)
Result string: 10 to 25 nM

Query string: Okay, and COc1cc(-c2cn(C)c(=O)c(C)c2C)cc(OC)c1CN1CCN(Cc2cccc3c2CCN(C(=O)/C(C#N)=C/C(C)(C)C)[C@H]3C(C)C)CC12CC2 (single isomer, unassigned) ?
Result string: 1.25 to 10 nM

Query string: # iterate: COc1cc(-c2cn(C)c(=O)c(C)c2C)cc(OC)c1CN1CCCN(Cc2cccc3c2CCN(C(=O)/C(C#N)=C/c2cccc(C(F)(F)F)n2)C3C)CC1 (mixture of isomers)
Result string: < 1.25 nM

Query string: Similarly, COc1cc(-c2cn(C)c(=O)c(C)c2C)cc(OC)c1CN1CCN(Cc2cccc3c2CCN(C(=O)/C(C#N)=C/c2cccc(C#N)c2)C3C)CC1 (mixture of isomers) ?
Result string: < 1.25 nM

Query string: Okay, and COc1cc(-c2cn(C)c(=O)c(C)c2C)cc(OC)c1CN(C)Cc1ccc(C2CCCN2C(=O)/C(C#N)=C/C(C)(C)C)cc1 (mixture of isomers) ?
Result string: 1.25 to 10 nM

Query string: Can you handle COc1cc(-c2cn(C)c(=O)c(C)c2C)cc(OC)c1CN1CCN(Cc2cccc3c2CCN(C(=O)/C(C#N)=C/C(C)(C)CF)[C@@H]3C)C2(CC2)C1 (single isomer, unassigned) next?
Result string: 1.25 to 10 nM

Query string: Another compound to check: COc1cc(-c2cn(C)c(=O)c(C)c2C)cc(OC)c1CN1CCN(Cc2ccc3c(c2)[C@H](C)N(C(=O)/C(C#N)=C/C(C)(C)C)CC3)CC12CC2 (mixture of isomers)
Result string: 1.25 to 10 nM

Query string: Please give the result for COc1cc(-c2cn(C)c(=O)c(C)c2C)cc(OC)c1CN1CCC(Cc2ccc3c(c2)C(C)N(C(=O)/C(C#N)=C/C(C)(C)C)CC3)CC1(C)C (stereo not shown) too.
Result string: 25 to 1000 nM

Query string: What about COc1cc(-c2cn(C)c(=O)c(C)c2C)cc(OC)c1CN1CCN(Cc2cccc3c2CCN(C(=O)C(C#N)=CC24CC(OC)(C2)C4)C3C)C2(CC2)C1 (mixture of isomers) ?
Result string: < 1.25 nM
